Assay details: wild-type TIM10 yeast growth inhibition – luminescence, uHTS, counter-screen for tim10-1 yeast inhibitor project, primary screen (AID 463195);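 further: wild-type TIM10 isogenic control strain grown at permissive 25 °C; 0% = DMSO yeast wells and 100% = minimal medium wells without yeast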
Condition context: S. cerevisiae TIM10 strain growth, BacTiter-Glo luminescence, 24 h; at 10 µM; hits give high values
The campaign covered roughly 330,000 compounds. About 4,600 (1.4%) were called active. For the sample, actives were picked, then their nearest neighbours and some compounds at random.
Property name: inhibition (%)
Please respond with the number in % and leave the unit unwritten.

{"columns": ["Compound", "inhibition, %"],
 "data": [
  ["O=c1c(/C=N/O)coc2ccc(Cl)cc12", -3.79],
  ["O=C(/C=C/c1cccs1)c1cc(Cl)ccc1OC(=O)N1CCOCC1", 52.9],
  ["NC(=O)c1ccsc1NC(=O)c1ccco1", 8.27]
]}

Note to self: inhibition recorded for O=C(Oc1cccc(C(=S)N2CCOCC2)c1)c1cccc(Cl)c1 was 17.1

Consider Cc1ccc(CNC(=O)c2cccc3c2C(=O)c2ccc(N4CCC(C)CC4)cc2S3(=O)=O)cc1 . Its measured inhibition is 4.75

# inhibition (compound: NC(=O)c1cc(S(=O)(=O)N2CCCC2)ccc1OCc1ccc(F)cc1 ) is -5.53

inhibition reading for Cc1cc(C)c([N+](=O)[O-])cc1-c1ccc(/C=N/NC(=O)c2nonc2N)o1 : -9.15

# compound COc1ccc(CN2CCNC(=O)C2CC(=O)N(C)Cc2ccccn2)cc1OC (stereo not drawn) ; its inhibition = 10.2

Lookup result for Cc1ccc(-c2ccc(/C=C(\C#N)C(N)=S)o2)c([N+](=O)[O-])c1 ; measured inhibition: 51.5

The reported value for O=C(NCCN1C(=O)S/C(=C\c2cccnc2)C1=O)c1cccc(OC(F)F)c1 in terms of inhibition is 43.2

Lookup result for O=C(c1snnc1-c1ccccc1)N1CCOCC1 ; measured inhibition: 15.4

The compound listed as CC(=O)Nc1ccccc1OC(=O)N1CCOCC1 has a reported inhibition of -16.6

# compound O=C(NCCN1C(=O)S/C(=C\c2cccnc2)C1=O)c1ccc(S(=O)(=O)N2CCCC2)cc1 ; its inhibition = 2.86

----------
Assay details: wild-type TIM10 yeast growth inhibition – luminescence, uHTS, counter-screen for tim10-1 yeast inhibitor project, primary screen (AID 463195);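 further: wild-type TIM10 isogenic control strain grown at permissive 25 °C; 0% = DMSO yeast wells and 100% = minimal medium wells without yeast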
Condition context: S. cerevisiae TIM10 strain growth, BacTiter-Glo luminescence, 24 h; at 10 µM; hits give high values
Screen size: about 330,000 compounds; about 4,600 (1.4%) were called active. Shown is part of a subset that was picked to be rich in actives.
Catalogue of compounds with associated inhibition
Your answer should be a plain number; it is taken to be in %.

{"columns": ["Mol", "inhibition (%)"],
 "data": [
  ["CC(=O)c1ccc(NC(=S)NC(=O)CC(C)C)cc1", 28.8],
  ["O=C(NCc1cccnc1)c1cn(-c2ccccc2)nc1-c1cccs1", 2.96],
  ["O=C(c1ccc2nc(N3CCOCC3)sc2c1)N1CCN(c2ccc(Cl)cc2)CC1", 39.5],
  ["COc1ccc2nc(N3CCN(C(=O)c4ccc([N+](=O)[O-])o4)CC3)sc2c1", 43.2],
  ["CCN(C(=O)COC(=O)CCOc1cccc(C)c1)c1c(N)n(Cc2ccccc2)c(=O)[nH]c1=O", -2.83]
]}

Okay, now this compound:
Lab note: measured inhibition of COc1ccc(NC(=O)COc2ccc(C(=O)c3ccc(F)cc3)cc2)cc1S(N)(=O)=O was 7.33

Data provenance: PubChem BioAssay AID463195
